Experimental Target: Aromatase (Homo sapiens, UniProt P11511)
Sequence (P11511 whole entry): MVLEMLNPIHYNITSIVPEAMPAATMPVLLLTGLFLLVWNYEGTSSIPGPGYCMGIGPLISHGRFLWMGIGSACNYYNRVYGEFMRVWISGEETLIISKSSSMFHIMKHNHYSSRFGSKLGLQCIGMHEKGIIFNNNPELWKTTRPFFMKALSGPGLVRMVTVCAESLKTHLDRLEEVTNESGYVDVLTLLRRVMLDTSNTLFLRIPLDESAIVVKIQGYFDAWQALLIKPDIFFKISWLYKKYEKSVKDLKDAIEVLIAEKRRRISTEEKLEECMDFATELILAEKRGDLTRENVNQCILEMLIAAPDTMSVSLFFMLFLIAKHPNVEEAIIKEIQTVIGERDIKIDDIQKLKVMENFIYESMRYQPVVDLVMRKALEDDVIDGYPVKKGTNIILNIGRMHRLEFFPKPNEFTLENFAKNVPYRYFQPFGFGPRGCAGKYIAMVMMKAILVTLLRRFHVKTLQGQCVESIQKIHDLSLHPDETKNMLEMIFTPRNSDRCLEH
Experiment Description: Inhibition of recombinant human aromatase at 100 uM preincubated for 10 mins followed by substrate and beta-NADP+ addition and measured for 60 mins by fluorescence method
Condition: 1 h
inhibition at 100 µM overview
Quantity Kind: inhibition at 100 µM (%)

>>> test_value("CC[C@H](Nc1cc(C)nc(Nc2cccc(O)c2)n1)c1nccs1")
79
>>> test_value("NC(CCC(=O)O)C(=O)NC(Cc1c[nH]c2ccccc12)C(=O)O (centres undefined)")
4
>>> test_value("O=C(CCc1ccc(O)c(Cl)c1)NCc1csc(=O)[nH]1")
53
>>> test_value("CC[C@H](CO)N(Cc1ccccn1)C(=O)c1ccc(=O)[nH]c1")
2
>>> test_value("O=C(C=Cc1ccc(O)c(O)c1)NCC(=O)NC(Cc1ccccc1)C(=O)O (centres undefined)")
10
>>> test_value("OCC(O)C(O)C(O)C(c1ccc(Cl)cc1)c1ccc(Cl)cc1 (centres undefined)")
11
>>> test_value("CCSC(C(O)C(O)C(O)C(O)CO)n1cnc2c(S)ncnc21 (centres undefined)")
2
>>> test_value("Cc1ccc(C(c2ccc(C)c(C)c2)C(O)C(O)C(O)C(O)CO)cc1C (centres undefined)")
5
>>> test_value("O=C1c2c(O)cc(O)cc2O[C@H](c2ccc(O)c(O)c2)[C@H]1O [(+)-TAXIFOLIN]")
46
